Assayed Target: T1, human IL-6 (human, UniProt P05231 30-212)
T1 construct: also called interleukin-6
T1 sequence (P05231 30-212 limits assumed): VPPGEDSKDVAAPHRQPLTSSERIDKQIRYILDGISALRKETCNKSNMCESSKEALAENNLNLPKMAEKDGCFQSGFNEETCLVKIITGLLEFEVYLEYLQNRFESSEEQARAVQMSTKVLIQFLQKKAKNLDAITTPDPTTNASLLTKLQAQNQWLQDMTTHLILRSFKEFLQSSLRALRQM
Assay Remarks: SPR (Biacore T200), antibody from cell supernatant captured on Protein A, IL-6 flowed over, 37 C
Measurement Name: kon (M⁻¹ s⁻¹)
Answers are plain numbers, in M⁻¹ s⁻¹.

Answered examples (6):
anti-IL-6 antibody, heavy chain T63S, G66D / light chain WT (antibody, human IgG1, V domains shown, Derived as m2; Engineered human IgG1) VH: EVQLVESGGGLVQPGGSLRLSCAASGFTFSPFAMSWVRQAPGKGLEWVAKISPGGSWTYYSDSVTDRFTFSLDTSKSTAYLQMNSLRAEDTAVYYCARQLWGYYALDIWGQGTLVTVSS VL: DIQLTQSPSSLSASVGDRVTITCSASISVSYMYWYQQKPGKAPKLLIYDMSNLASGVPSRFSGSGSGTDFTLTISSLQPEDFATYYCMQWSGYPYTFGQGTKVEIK :: 2.52e+06
anti-IL-6 antibody, heavy chain T63A, G66D / light chain WT (antibody, human IgG1, V domains shown, Derived as m2; Engineered human IgG1) VH: EVQLVESGGGLVQPGGSLRLSCAASGFTFSPFAMSWVRQAPGKGLEWVAKISPGGSWTYYSDAVTDRFTFSLDTSKSTAYLQMNSLRAEDTAVYYCARQLWGYYALDIWGQGTLVTVSS VL: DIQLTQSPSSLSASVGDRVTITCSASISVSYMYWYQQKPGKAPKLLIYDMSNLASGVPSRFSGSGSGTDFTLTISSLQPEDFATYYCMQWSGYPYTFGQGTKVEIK :: 2.8e+06
anti-IL-6 antibody, heavy chain WT / light chain WT (antibody, human IgG1, V domains shown, Full antibody on an engineered human IgG1 framework, Fc with L234A, L235A, G237A and L443C (EU numbering), expressed in Expi293 cells; also called wild-type; parent molecule) VH: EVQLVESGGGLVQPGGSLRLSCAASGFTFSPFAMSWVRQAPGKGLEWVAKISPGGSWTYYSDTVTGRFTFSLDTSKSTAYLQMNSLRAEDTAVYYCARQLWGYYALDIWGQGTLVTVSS VL: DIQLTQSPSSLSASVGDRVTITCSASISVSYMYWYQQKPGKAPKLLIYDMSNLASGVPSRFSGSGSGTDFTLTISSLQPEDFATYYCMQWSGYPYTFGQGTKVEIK :: 670000
anti-IL-6 antibody, heavy chain G66D / light chain WT (antibody, human IgG1, V domains shown, Derived as m2; Engineered human IgG1) VH: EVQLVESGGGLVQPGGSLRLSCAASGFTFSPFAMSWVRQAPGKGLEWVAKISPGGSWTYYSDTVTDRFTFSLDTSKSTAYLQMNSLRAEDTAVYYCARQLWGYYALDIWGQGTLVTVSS VL: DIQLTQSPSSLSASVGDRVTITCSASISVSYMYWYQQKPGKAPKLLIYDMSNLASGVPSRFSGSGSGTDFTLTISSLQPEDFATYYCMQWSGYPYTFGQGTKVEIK :: 1.83e+06
anti-IL-6 antibody, heavy chain S35P, G66D / light chain WT (antibody, human IgG1, V domains shown, Derived as m2; Engineered human IgG1) VH: EVQLVESGGGLVQPGGSLRLSCAASGFTFSPFAMPWVRQAPGKGLEWVAKISPGGSWTYYSDTVTDRFTFSLDTSKSTAYLQMNSLRAEDTAVYYCARQLWGYYALDIWGQGTLVTVSS VL: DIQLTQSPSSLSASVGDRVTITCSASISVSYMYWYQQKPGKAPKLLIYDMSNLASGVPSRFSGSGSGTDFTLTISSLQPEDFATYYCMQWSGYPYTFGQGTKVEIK :: 103000
anti-IL-6 antibody, heavy chain I51K, G66D / light chain WT (antibody, human IgG1, V domains shown, Derived as m2; Engineered human IgG1) VH: EVQLVESGGGLVQPGGSLRLSCAASGFTFSPFAMSWVRQAPGKGLEWVAKKSPGGSWTYYSDTVTDRFTFSLDTSKSTAYLQMNSLRAEDTAVYYCARQLWGYYALDIWGQGTLVTVSS VL: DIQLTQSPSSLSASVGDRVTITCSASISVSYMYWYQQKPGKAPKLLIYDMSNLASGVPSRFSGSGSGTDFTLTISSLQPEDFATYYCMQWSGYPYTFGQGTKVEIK :: 1.38e+06

Look at each binder and report its kon.
1. anti-IL-6 antibody, heavy chain T65E, G66D / light chain WT (antibody, human IgG1, V domains shown, Derived as m2; Engineered human IgG1) VH: EVQLVESGGGLVQPGGSLRLSCAASGFTFSPFAMSWVRQAPGKGLEWVAKISPGGSWTYYSDTVEDRFTFSLDTSKSTAYLQMNSLRAEDTAVYYCARQLWGYYALDIWGQGTLVTVSS VL: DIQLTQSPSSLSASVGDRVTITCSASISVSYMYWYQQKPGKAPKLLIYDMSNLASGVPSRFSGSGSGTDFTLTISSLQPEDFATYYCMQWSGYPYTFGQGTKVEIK
2. anti-IL-6 antibody, heavy chain I51T, G66D / light chain WT (antibody, human IgG1, V domains shown, Derived as m2; Engineered human IgG1) VH: EVQLVESGGGLVQPGGSLRLSCAASGFTFSPFAMSWVRQAPGKGLEWVAKTSPGGSWTYYSDTVTDRFTFSLDTSKSTAYLQMNSLRAEDTAVYYCARQLWGYYALDIWGQGTLVTVSS VL: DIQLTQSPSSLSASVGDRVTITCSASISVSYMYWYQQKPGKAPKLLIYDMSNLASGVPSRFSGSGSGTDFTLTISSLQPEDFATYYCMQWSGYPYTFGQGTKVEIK
3. anti-IL-6 antibody, heavy chain T63Y, G66D / light chain WT (antibody, human IgG1, V domains shown, Derived as m2; Engineered human IgG1) VH: EVQLVESGGGLVQPGGSLRLSCAASGFTFSPFAMSWVRQAPGKGLEWVAKISPGGSWTYYSDYVTDRFTFSLDTSKSTAYLQMNSLRAEDTAVYYCARQLWGYYALDIWGQGTLVTVSS VL: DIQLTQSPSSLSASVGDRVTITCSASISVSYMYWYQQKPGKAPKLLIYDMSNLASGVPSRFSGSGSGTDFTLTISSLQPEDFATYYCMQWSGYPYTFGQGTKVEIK
4. anti-IL-6 antibody, heavy chain T63V, G66D / light chain WT (antibody, human IgG1, V domains shown, Derived as m2; Engineered human IgG1) VH: EVQLVESGGGLVQPGGSLRLSCAASGFTFSPFAMSWVRQAPGKGLEWVAKISPGGSWTYYSDVVTDRFTFSLDTSKSTAYLQMNSLRAEDTAVYYCARQLWGYYALDIWGQGTLVTVSS VL: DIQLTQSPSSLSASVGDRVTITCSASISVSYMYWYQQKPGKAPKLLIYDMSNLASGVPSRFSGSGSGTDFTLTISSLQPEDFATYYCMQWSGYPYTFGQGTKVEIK

Result:
2.2e+06
1.79e+06
1.82e+06
1.84e+06
